amyloid nucleation score: recorded values
# procedure text: amyloid nucleation score (Sup35N fusion, yeast selection) (log enrichment); library NNK2; higher = more nucleation; inactive = no reads after selection;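 note: zero at mode of non-aggregating sequences after 7 days selection at 30°C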
When you answer, write just the number.

- substance: "VRIKCYVKPYFFQKFLHMIG"
  amyloid nucleation score: -1.34
- substance: "SLKSAFQMKVISYLVEWLVS"
  amyloid nucleation score: -0.6
- substance: "NTSHGFQSNPRGAYERILCV"
  amyloid nucleation score: -0.961
- substance: "VNWIKGKGRLPPFHGIDCWW"
  amyloid nucleation score: -0.139
- substance: "YTTNIF"
  amyloid nucleation score: -0.793

Next, consider the following substance.
Which amyloid nucleation score is reported for this substance? FWYLLSLGQIIRSVNLGNWI
-0.78

---

# procedure text: amyloid nucleation score (Sup35N fusion, yeast selection) (log enrichment); library NNK2; higher = more nucleation; inactive = no reads after selection
Please use Met whenever amyloid nucleation score is not below -0.08, and Not met whenever it is.

- substance: "GFPRMTIHVKFHGQFSCFII"
  category label: "Met"
- substance: "RKVTAVHLRHPP"
  category label: "Met"

Please check the record SVYQVRLLFGDLRANKAVVS and state if its amyloid nucleation score is at or above -0.08.
Not met

Please check the record MVTTSSVSNADLNVDMWLEP and state if its amyloid nucleation score is at or above -0.08.
Met

Please check the record RNYRIETSSNVIKV and state if its amyloid nucleation score is at or above -0.08.
Met

Please check the record VSQGRFKYERVVCVNFGKEL and state if its amyloid nucleation score is at or above -0.08.
Met

Please check the record QGFYDGQPV and state if its amyloid nucleation score is at or above -0.08.
Met

Please check the record FKFGPMDSIKYMSANFISQC and state if its amyloid nucleation score is at or above -0.08.
Not met

Please check the record DVVKNLYSSGLGLSTCMLYI and state if its amyloid nucleation score is at or above -0.08.
Not met

Please check the record NAYLFMFFRRGLWFSVLPFV and state if its amyloid nucleation score is at or above -0.08.
Not met

Please check the record QRPRGLNLRYTDTRWIFYGP and state if its amyloid nucleation score is at or above -0.08.
Met

Please check the record LFGYGQEDGQWCGDEFETVK and state if its amyloid nucleation score is at or above -0.08.
Met

Please check the record VMNMRLLRANLPWTLAWRVQ and state if its amyloid nucleation score is at or above -0.08.
Met

Please check the record HVWLIGFNLFLYFITLVVWV and state if its amyloid nucleation score is at or above -0.08.
Not met

Please check the record AFDTTPKC and state if its amyloid nucleation score is at or above -0.08.
Met

Please check the record RVLTKYMFMILFSSSFSYVR and state if its amyloid nucleation score is at or above -0.08.
Met

Please check the record NRPMEGRLKWSMTVLIVSLY and state if its amyloid nucleation score is at or above -0.08.
Not met

Please check the record KLAPLNKGSFA and state if its amyloid nucleation score is at or above -0.08.
Not met

Please check the record SSLCGNCLGVEVVEQVISCR and state if its amyloid nucleation score is at or above -0.08.
Not met

Please check the record WYISARPYVFCYDMQRSLRL and state if its amyloid nucleation score is at or above -0.08.
Not met

Please check the record RVSLTIYKC and state if its amyloid nucleation score is at or above -0.08.
Met

Please check the record CLCCKLVYASNIEIGDYMGF and state if its amyloid nucleation score is at or above -0.08.
Met

Please check the record QNRLLDFFSEPTSRS and state if its amyloid nucleation score is at or above -0.08.
Not met

---

# procedure text: amyloid nucleation score (Sup35N fusion, yeast selection) (log enrichment); library NNK3; higher = more nucleation; inactive = no reads after selection
parameter: amyloid nucleation score

Examples with their reported amyloid nucleation score follow.
- substance: "FFPAMRTCWGKSGCARPYA"
  amyloid nucleation score: "inactive"
- substance: "PFRFVKNLCGATG"
  amyloid nucleation score: "inactive"
- substance: "TWTMDSSLWMLWAVQVVEGR"
  amyloid nucleation score: "inactive"
- substance: "LHGCTEITKGNYLPNNAVD"
  amyloid nucleation score: "inactive"
- substance: "ICCTSS"
  amyloid nucleation score: "inactive"

Which amyloid nucleation score is reported for this substance? CLTYHSCIFRVHLFTISINV
inactive

Which amyloid nucleation score is reported for this substance? CSFIAGAPTSFWVVGLCWKY
-0.031

Which amyloid nucleation score is reported for this substance? AIGRTCGKYMYSFGGLHSSH
inactive

Which amyloid nucleation score is reported for this substance? MDMLMLMGMALLIDSNVQAK
inactive

Which amyloid nucleation score is reported for this substance? YNDFCN
0.194

Which amyloid nucleation score is reported for this substance? PRISQEDVFARTARVDLGLQ
inactive

Which amyloid nucleation score is reported for this substance? CRRFELS
-1.04

Which amyloid nucleation score is reported for this substance? SYSWYFYSAGTSWI
inactive

Which amyloid nucleation score is reported for this substance? HRFSVWSEYCILIFRLQHRP
inactive

---

# procedure text: amyloid nucleation score (Sup35N fusion, yeast selection) (log enrichment); library NNK1; higher = more nucleation; inactive = no reads after selection

- substance: "LLIRLLGQ"
  amyloid nucleation score: "inactive"
- substance: "LSISRCSGRAV"
  amyloid nucleation score: "inactive"
- substance: "WTRLLD"
  amyloid nucleation score: "inactive"
- substance: "CEGCDMGWLRSTNRQLMAYL"
  amyloid nucleation score: "inactive"

---

amyloid nucleation score: recorded values
# procedure text: amyloid nucleation score (Sup35N fusion, yeast selection) (log enrichment); library NNK2; higher = more nucleation; inactive = no reads after selection
When you answer, write just the number.

- substance: "LQSRWCRVKETWQS"
  parameter: "amyloid nucleation score"
  numeric result: 1.66
- substance: "FRRVLCYKYYSFA"
  parameter: "amyloid nucleation score"
  numeric result: 2.42
- substance: "RSVRSFCVWKVELFVRSEGM"
  parameter: "amyloid nucleation score"
  numeric result: 2.01

Which amyloid nucleation score is reported for this substance? IYTRFQLFR
4.5

Which amyloid nucleation score is reported for this substance? VLFNKSLLRWSNWLV
0.166

Which amyloid nucleation score is reported for this substance? FMTGSFEENS
-0.945

Which amyloid nucleation score is reported for this substance? GEFLYNT
-0.237

Which amyloid nucleation score is reported for this substance? VAWMFMASFRSLSMMVSISR
0.01

Which amyloid nucleation score is reported for this substance? HERLKLAGSQSWVGKLVRQG
0.917

Which amyloid nucleation score is reported for this substance? AIRCMEVKRTKSLLLVDSLS
0.154

Which amyloid nucleation score is reported for this substance? CRHMSDHWKSSR
-0.562

Which amyloid nucleation score is reported for this substance? MGCICWVDCKPYDFGMTVVM
-0.726

Which amyloid nucleation score is reported for this substance? SLDECHLSRRTNS
0.411

Which amyloid nucleation score is reported for this substance? VNSDYMGIGL
-0.272

Which amyloid nucleation score is reported for this substance? SRRRLVPSLLTRIISGVRGR
-0.877

Which amyloid nucleation score is reported for this substance? QSFNGS
-1.2

Which amyloid nucleation score is reported for this substance? DSLPSRNSNIGWIQWILWGI
-0.121

Which amyloid nucleation score is reported for this substance? GPCDQSWAT
1.06

---

# procedure text: amyloid nucleation score (Sup35N fusion, yeast selection) (log enrichment); library NNK3; higher = more nucleation; inactive = no reads after selection
parameter: amyloid nucleation score

- item sequence: "LEHCLCGLKYPDE"
  amyloid nucleation score: "inactive"
- item sequence: "FAGEATVDTWTIFMCVIRGW"
  amyloid nucleation score: -0.225
- item sequence: "SIIVTVQLWYVGV"
  amyloid nucleation score: 0.422
- item sequence: "MACGGIKTIDTWNGDKFNVQ"
  amyloid nucleation score: "inactive"

Next, consider the following sequence.
Which amyloid nucleation score is reported for this sequence? IMCYLSITRWKDM
inactive

---

# procedure text: amyloid nucleation score (Sup35N fusion, yeast selection) (log enrichment); library NNK3; higher = more nucleation; inactive = no reads after selection
parameter: amyloid nucleation score

- item sequence: "QCSDVLYY"
  parameter: "amyloid nucleation score"
  result: "inactive"
- item sequence: "TINIQCALGMNQT"
  parameter: "amyloid nucleation score"
  result: 1.17
- item sequence: "CMFKGHAELLRWVL"
  parameter: "amyloid nucleation score"
  result: "inactive"

---

# procedure text: amyloid nucleation score (Sup35N fusion, yeast selection) (log enrichment); library NNK3; higher = more nucleation; inactive = no reads after selection
parameter: amyloid nucleation score

Examples with their reported amyloid nucleation score follow.
- substance: "SNYFTFYLFNVRGIWGFADC"
  parameter: "amyloid nucleation score"
  result: 2.56
- substance: "HGMGYRAIFIFNLISQPRLE"
  parameter: "amyloid nucleation score"
  result: 2.52
- substance: "MDNLCGVVFCGSWSVVYSAR"
  parameter: "amyloid nucleation score"
  result: 3.35
- substance: "QNFRFYLTCVSGSGHYRSYT"
  parameter: "amyloid nucleation score"
  result: 1.37
- substance: "VYWFRYRSIGTAAS"
  parameter: "amyloid nucleation score"
  result: "inactive"

Which amyloid nucleation score is reported for this substance? SFLIDPTHGLYSLRFFIFCW
inactive

Which amyloid nucleation score is reported for this substance? YVSSRNRHYGSPYLGVCVFK
inactive

Which amyloid nucleation score is reported for this substance? HFETNTVFQVFEICIVSCCY
2.34

Which amyloid nucleation score is reported for this substance? SYRGSRRRSFTSYLCEFEGM
inactive

Which amyloid nucleation score is reported for this substance? KTSINGKADFG
inactive

The origin of these recorded values is the supplement of paper PMC12042874.
